Values compiled from patent US20230416248A1.

# EXPERIMENTAL TARGET: BRG-1 (Homo sapiens, UniProt P51532)
# Construct: made in house; host or cells: High Five insect cells
# Sequence (P51532 whole entry): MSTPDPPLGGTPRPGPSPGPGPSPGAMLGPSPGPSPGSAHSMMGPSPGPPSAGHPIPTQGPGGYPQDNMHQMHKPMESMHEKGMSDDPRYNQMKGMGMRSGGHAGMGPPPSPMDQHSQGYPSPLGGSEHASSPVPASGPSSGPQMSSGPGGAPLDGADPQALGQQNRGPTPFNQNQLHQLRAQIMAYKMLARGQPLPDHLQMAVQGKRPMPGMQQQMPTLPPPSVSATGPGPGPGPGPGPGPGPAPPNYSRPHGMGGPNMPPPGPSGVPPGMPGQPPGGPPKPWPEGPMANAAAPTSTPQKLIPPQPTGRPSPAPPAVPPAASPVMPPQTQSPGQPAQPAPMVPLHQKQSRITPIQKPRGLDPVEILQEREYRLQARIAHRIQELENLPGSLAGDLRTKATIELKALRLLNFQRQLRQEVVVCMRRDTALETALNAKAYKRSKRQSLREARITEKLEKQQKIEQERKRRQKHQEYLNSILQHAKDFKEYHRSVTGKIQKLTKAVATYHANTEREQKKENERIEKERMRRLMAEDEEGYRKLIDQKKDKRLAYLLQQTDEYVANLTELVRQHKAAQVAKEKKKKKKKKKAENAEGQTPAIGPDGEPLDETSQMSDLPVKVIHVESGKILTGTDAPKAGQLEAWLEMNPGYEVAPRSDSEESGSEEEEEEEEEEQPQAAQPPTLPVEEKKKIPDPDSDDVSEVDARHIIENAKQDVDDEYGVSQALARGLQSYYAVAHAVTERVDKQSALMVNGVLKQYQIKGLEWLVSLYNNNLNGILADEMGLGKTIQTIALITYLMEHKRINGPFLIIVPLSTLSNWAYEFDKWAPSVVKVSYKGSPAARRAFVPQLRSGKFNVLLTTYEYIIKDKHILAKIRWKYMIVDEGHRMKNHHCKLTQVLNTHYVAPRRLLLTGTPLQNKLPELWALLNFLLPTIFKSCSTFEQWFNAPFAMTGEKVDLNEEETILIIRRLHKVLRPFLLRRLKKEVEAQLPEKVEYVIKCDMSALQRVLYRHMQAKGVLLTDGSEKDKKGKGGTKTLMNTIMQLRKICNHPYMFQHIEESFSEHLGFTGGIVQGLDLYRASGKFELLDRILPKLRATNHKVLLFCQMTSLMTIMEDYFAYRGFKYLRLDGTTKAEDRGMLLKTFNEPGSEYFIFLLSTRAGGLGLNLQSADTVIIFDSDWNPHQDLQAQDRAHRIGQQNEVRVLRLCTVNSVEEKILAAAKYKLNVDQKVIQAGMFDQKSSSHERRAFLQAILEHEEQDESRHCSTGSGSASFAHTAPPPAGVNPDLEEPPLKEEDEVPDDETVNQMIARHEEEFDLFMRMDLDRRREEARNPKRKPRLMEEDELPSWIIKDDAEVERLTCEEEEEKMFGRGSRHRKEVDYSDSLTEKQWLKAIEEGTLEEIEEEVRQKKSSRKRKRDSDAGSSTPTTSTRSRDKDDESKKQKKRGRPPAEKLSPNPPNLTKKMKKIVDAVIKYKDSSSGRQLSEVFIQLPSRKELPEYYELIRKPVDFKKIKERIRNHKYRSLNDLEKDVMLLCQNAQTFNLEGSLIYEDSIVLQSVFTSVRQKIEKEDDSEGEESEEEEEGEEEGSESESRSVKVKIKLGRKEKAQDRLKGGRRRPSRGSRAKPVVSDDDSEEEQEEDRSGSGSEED
# TEST DESCRIPTION: ATPase catalytic activity of BRG-1, ADP-Glo in vitro biochemical assay
# CONDITIONS: ATPase catalytic activity, ADP-Glo; 30 nM BRG-1, 400 μM ATP; read-out: BRG1 IC50
RECORDED ENDPOINT: IC50 (nM)
Provide the reading as a plain figure in nM.

Please review the entries below; each comes with its answer.
> print(dat)
                                   molecule  observed
1  C[C@H]1CCN(C)c2nc(-c3ccc4cnc(CNC(=O)c5ccc6c(c5)S(=O)(=O)CCOC6)cc4n3)ccc21 [Compound 694]       287
2  O=C(NCc1cc2nc(N3CCCc4c(OC5CC5)ccnc43)ccc2cn1)c1ccc2c(c1)S(=O)(=O)CCOC2 [Compound 677]      35.7
3  Cc1cnc2c(c1)OCCN2c1ccc2cnc(CNC(=O)c3cc(F)c4c(c3)S(=O)(=O)[C@@H](C)COC4)cc2n1 [Compound 554]      83.1
4  Cc1cc(C(=O)NCc2cc3nc(-c4cccc(N5C[C@@H](C)O[C@@H](C)C5)n4)ccc3cn2)cc2c1OCC[C@H](C)S2(=O)=O [Compound 456]       398
5  O=C(NCc1cc2nc(N3CCOc4ccc(C5CC5)nc43)ccc2cn1)c1ccc2c(c1)S(=O)(=O)CCOC2 [Compound 616]       442
6  COc1c(-c2ccc3cnc(CNC(=O)c4ccc5c(c4)S(=O)(=O)CCOC5)cc3n2)cccc1C1CC1 [Compound 430]      2410

For the next question, use this molecule.
Per the record, COCCn1cc2c(-c3ccc4cnc(CNC(=O)c5ccc6c(c5)S(=O)(=O)CCOC6)cc4n3)cccc2n1 [Compound 673] has IC50 of 4990

###

# EXPERIMENTAL TARGET: BRM (Homo sapiens)
# Construct: made in house; host or cells: High Five insect cells
# Sequence (P51531 whole entry): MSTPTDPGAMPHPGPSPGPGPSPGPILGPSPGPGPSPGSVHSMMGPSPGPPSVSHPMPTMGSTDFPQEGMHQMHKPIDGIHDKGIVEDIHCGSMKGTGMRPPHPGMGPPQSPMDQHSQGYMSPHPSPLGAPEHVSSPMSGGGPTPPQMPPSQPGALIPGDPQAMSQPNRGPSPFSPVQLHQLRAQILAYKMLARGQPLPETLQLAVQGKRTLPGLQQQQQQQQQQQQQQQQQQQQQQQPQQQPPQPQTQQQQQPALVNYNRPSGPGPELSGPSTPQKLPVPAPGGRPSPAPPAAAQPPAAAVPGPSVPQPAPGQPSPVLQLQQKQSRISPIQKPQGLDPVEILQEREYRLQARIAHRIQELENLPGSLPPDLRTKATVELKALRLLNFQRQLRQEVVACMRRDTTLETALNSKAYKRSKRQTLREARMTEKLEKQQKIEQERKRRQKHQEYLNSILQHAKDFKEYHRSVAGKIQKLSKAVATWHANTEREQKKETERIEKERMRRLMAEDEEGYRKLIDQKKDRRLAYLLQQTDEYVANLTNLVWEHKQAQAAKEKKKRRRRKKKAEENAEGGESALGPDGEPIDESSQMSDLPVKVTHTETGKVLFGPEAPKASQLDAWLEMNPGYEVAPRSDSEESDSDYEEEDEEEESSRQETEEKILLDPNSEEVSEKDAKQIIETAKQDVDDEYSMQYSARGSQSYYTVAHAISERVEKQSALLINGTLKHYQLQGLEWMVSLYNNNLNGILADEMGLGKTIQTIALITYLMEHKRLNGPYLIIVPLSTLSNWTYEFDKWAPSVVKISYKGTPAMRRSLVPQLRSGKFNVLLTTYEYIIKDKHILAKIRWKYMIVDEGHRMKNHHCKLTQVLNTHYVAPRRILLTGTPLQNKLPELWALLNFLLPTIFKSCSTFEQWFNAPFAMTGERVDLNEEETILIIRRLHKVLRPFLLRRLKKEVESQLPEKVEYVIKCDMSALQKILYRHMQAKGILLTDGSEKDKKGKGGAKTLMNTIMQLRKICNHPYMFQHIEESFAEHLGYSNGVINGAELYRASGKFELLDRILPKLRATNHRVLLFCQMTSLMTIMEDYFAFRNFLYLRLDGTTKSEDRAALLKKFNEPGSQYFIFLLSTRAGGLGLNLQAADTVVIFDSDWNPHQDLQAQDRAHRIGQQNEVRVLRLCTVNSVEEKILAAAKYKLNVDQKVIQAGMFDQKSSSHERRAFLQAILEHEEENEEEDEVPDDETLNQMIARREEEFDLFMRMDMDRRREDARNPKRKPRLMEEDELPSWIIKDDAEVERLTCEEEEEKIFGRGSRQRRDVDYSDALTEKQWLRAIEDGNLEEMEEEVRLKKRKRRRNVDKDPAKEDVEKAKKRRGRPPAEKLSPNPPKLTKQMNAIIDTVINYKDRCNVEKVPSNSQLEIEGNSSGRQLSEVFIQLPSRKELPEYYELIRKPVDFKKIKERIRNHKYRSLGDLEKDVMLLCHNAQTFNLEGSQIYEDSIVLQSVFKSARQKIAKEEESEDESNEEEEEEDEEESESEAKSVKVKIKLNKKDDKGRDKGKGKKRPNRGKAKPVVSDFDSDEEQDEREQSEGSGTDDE
# TEST DESCRIPTION: ATPase catalytic activity of BRM, ADP-Glo in vitro biochemical assay
# CONDITIONS: ATPase catalytic activity, ADP-Glo; 30 nM BRM, 400 μM ATP
pIC50 listing for selected compounds.
Just the number, please; pIC50 means minus log10 of the concentration in mol/L.

Check out these entries, answers already filled in.
> print(dat)
                  compound.structure.string  observed
1  COCCN1CCOc2c(-c3ccc4cnc(CNC(=O)c5ccc6c(c5)S(=O)(=O)CCOC6)cc4n3)ccc(F)c21      8.24
2  COCCOc1cc(C(F)F)ccc1-c1ccc2cnc(CNC(=O)c3ccc4c(c3)S(=O)(=O)CCOC4)cc2n1      6.49
3  CN1CCCCc2ccc(-c3ccc4cnc(CNC(=O)c5ccc6c(c5)S(=O)(=O)CCOC6)cc4n3)nc21      6.81
4  COc1nc(C(F)F)ccc1-c1ccc2cnc(CNC(=O)c3ccc4c(c3)S(=O)(=O)[C@@H](C)COC4)cc2n1      7.96
5  O=C(NCc1cc2nc(N3CCOc4ccc([C@@H]5CC5(F)F)nc43)ccc2cn1)c1ccc2c(c1)S(=O)(=O)CCOC2      7.99
6  O=C(NCc1cc2nc(N3CCCc4cc(N5CCC5)cnc43)ccc2cn1)c1ccc2c(c1)S(=O)(=O)CCOC2      7.62

Would you kindly look at the next entry?
// pIC50 (BRM (Homo sapiens)) for COCCN(c1cccc(-c2ccc3cnc(CNC(=O)c4ccc5c(c4)S(=O)(=O)CCOC5)cc3n2)n1)C1CCC1 = 8.06

###

# EXPERIMENTAL TARGET: BRG-1 (Homo sapiens, UniProt P51532)
# Construct: made in house; host or cells: High Five insect cells
# TEST DESCRIPTION: ATPase catalytic activity of BRG-1, ADP-Glo in vitro biochemical assay
# CONDITIONS: ATPase catalytic activity, ADP-Glo; 30 nM BRG-1, 400 μM ATP; read-out: BRG1 IC50
# Procedure: The ATPase catalytic activity of BRM or BRG-1 was measured by an in vitro biochemical assay using ADP-Glo™ (Promega, V9102). The ADP-Glo™ kinase assay is performed in two steps once the reaction is complete. The first step is to deplete any unconsumed ATP in the reaction. The second step is to convert the reaction product ADP to ATP, which will be utilized by the luciferase to generate luminesce and be detected by a luminescence reader, such as Envision. […]
RECORDED ENDPOINT: log10 of IC50 (log10 of the value in nM)
Values are log10 of IC50 in nM.

In the examples that follow, each entry is paired with its recorded log10 of IC50.
> print(dat)
                                   compound                   experimental.target  recorded.endpoint  observed
1  COC[C@H]1C[C@H]1N(C)c1cccc(-c2ccc3cnc(CNC(=O)c4ccc5c(c4)S(=O)(=O)CCOC5)cc3n2)n1 [Compound 412]  BRG-1 (Homo sapiens, UniProt P51532)      log10 of IC50      2.81
2  CN1CCCCc2ccc(-c3ccc4cnc(CNC(=O)c5ccc6c(c5)S(=O)(=O)CCOC6)cc4n3)nc21 [Compound 569]  BRG-1 (Homo sapiens, UniProt P51532)      log10 of IC50      2.71
3  C[C@@H]1CN(c2cccc(-c3ccc4cnc(CNC(=O)c5ccc6c(c5)S(=O)(=O)CC[C@H](C)O6)cc4n3)n2)C[C@H](C)O1 [Compound 418]  BRG-1 (Homo sapiens, UniProt P51532)      log10 of IC50      2.29

Reported log10 of IC50 of Cn1c(C(F)F)cc2c(-c3ccc4cnc(CNC(=O)c5ccc6c(c5)S(=O)(=O)CCOC6)cc4n3)ccnc21 [Compound 397] : 2.24

The recorded log10 of IC50 for entry COc1ccc2c(c1)CCN2c1ccc2cnc(CNC(=O)c3ccc4c(c3)S(=O)(=O)CCOC4)cc2n1 [Compound 653] equals 3.24

The compound O=C(NCc1cc2nc(N3CCN(C4CC4)c4cccnc43)ccc2cn1)c1ccc2c(c1)S(=O)(=O)CCOC2 [Compound 686] showed log10 of IC50 equal to 2.30

###

# EXPERIMENTAL TARGET: BRM (Homo sapiens)
# Construct: made in house; host or cells: High Five insect cells
# TEST DESCRIPTION: ATPase catalytic activity of BRM, ADP-Glo in vitro biochemical assay
# CONDITIONS: selectivity ratio BRG1 IC50 / BRM IC50
Listing of entries alongside the reported Ratio* (BRG1 IC50 (μM) divided by BRM IC50 (μM)).
Give a plain numeric answer without units written out.

Solved cases below.
> print(dat)
                                   molecule  observed
1  O=C(NCc1cc2nc(-c3cccc(OC4CC(F)(F)C4)n3)ccc2cn1)c1ccc2c(c1)S(=O)(=O)CCOC2 [Compound 74]      9.63
2  CN(C)S(=O)(=O)c1cccc(C(=O)NCc2cc3nc(-c4cncc(C5CC5)n4)ccc3cn2)c1 [Compound 301]     10.34
3  O=C(NCc1cc2nc(-c3cccc(N4CCC(F)CC4)n3)ccc2cn1)c1ccc2c(c1)S(=O)(=O)CCOC2 [Compound 186]     11.50
4  C[C@@H]1COC[C@H](C)N1c1cccc(-c2ccc3cnc(CNC(=O)c4ccc5c(c4)S(=O)(=O)CCOC5)cc3n2)n1 [Compound 104]      4.45
5  C[C@@H]1CN(c2cncc(-c3ccc4cnc(CNC(=O)c5ccc6c(c5)S(=O)(=O)CCOC6)cc4c3)n2)C[C@H](C)O1 [Compound 211]      3.05

Value of measured Ratio* (BRG1 IC50 (μM) divided by BRM IC50 (μM)) for the entry O=C(NCc1cc2nc(-c3cccc(CC(F)F)n3)ccc2cn1)c1ccc2c(c1)S(=O)(=O)CCOC2 [Compound 205] : 16.45

Documented Ratio* (BRG1 IC50 (μM) divided by BRM IC50 (μM)) of C[C@@H]1CN(c2cccc(-c3ccc4cnc(CNC(=O)c5ccc6c(c5)S(=O)(=O)[C@@H](C)CCO6)cc4n3)n2)C[C@H](C)O1 [Compound 15] : 6.80

###

Reported IC50 values follow for various molecules
# EXPERIMENTAL TARGET: BRG-1 (Homo sapiens)
# Construct: made in house; host or cells: High Five insect cells
# TEST DESCRIPTION: ATPase catalytic activity of BRG-1, ADP-Glo in vitro biochemical assay
# CONDITIONS: ADP-Glo ATPase assay, 30 nM BRG-1, 400 μM ATP; read-out: BRG1 IC50
Kindly provide the numeric value in nM only, without the unit symbol.

> print(dat)
                                   molecule  observed
1  COc1nn([C@H]2C[C@H](F)C2)cc1-c1ccc2cnc(CNC(=O)c3ccc4c(c3)S(=O)(=O)CCOC4)cc2c1 [Compound 149]       810
2  O=C(NCc1cc2nc(N3CCOc4cc(C5CC5)ccc43)ccc2nn1)c1ccc2c(c1)S(=O)(=O)CCOC2 [Compound 775]       152
3  Cn1ccc2c(-c3ccc4cnc(CNC(=O)c5ccc6c(c5)S(=O)(=O)CCOC6)cc4n3)ccc(Cl)c21 [Compound 43]       185
4  O=C(NCc1cc2cc(N3CCOc4ccc(C5CC5)nc43)ccc2cn1)c1ccc2c(c1)S(=O)(=O)CCOC2 [Compound 729]      1920
5  O=C(NCc1cc2cc(N3CCOc4ccc(C5CC5)cc43)ccc2cn1)c1ccc2c(c1)S(=O)(=O)CCOC2 [Compound 787]       194

Log: BRG-1 (Homo sapiens), molecule COCC1CN(c2ccc3cnc(CNC(=O)c4ccc5c(c4)S(=O)(=O)CCOC5)cc3n2)c2ccccc2O1 (stereo not shown) [Compound 716] , IC50 = 4770

Bench note, BRG-1 (Homo sapiens): CS(=O)(=O)c1cc(C(=O)NCc2cc3nc(-c4cccc(N5CC[C@H]6COC[C@H]6C5)n4)ccc3cn2)ccc1C(F)F [Compound 95] , IC50 reads 610
